Source of measurements: patent US20070092518A1

# target-desc: T1, human tumor necrosis factor-α (rHuTNF-alpha, Biosource) (human, UniProt P01375 77-233)
# T1 construct: Bought recombinant protein coated on ELISA plates; The TNFα of the Biacore assay is not described further; also called TNFα; human TNFα
# T1 sequence (P01375 77-233 limits assumed): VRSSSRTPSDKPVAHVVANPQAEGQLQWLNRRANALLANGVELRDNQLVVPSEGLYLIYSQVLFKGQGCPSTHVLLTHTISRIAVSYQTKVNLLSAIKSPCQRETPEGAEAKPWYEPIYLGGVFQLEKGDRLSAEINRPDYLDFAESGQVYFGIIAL
# protocol-summary: solid-phase ELISA, Fab lysate on coated rHuTNF-alpha

>  <binder>
SEQ ID NO 8 (Fab, V domains shown, Fab, E. coli lysate) VH: EVQLTESGGGLVQPGGSLRLSCRASGSTFSNHYMNWVRQAPGKGLEWIGEIRSKSINGATHYAESVKGRFIISRDGNGNDLYLEMNSLKTEDTAEYYCAQNYYGSTYDYWGQGTLVTVS VL: EIVLTQSPDFQSVTPKEKVTITCRASQFVGSSIHWYQQKPDQSPKLLIKYASESMSGVPSRFSGSGSGTDFTFTISSLEAEDAATYYCQQSHSWPFTFGPGTKVDIK

>  <binding result>
binds

$$$$
>  <binder>
SEQ ID NO 118 (Fab, V domains shown, Fab, E. coli lysate) VH: EVQLVESGGGLVQPGGSLRLSCAASQFTFSNHWMNWVRQAPGKGLEWIGEIRSKSINSATSYAESVKGRFIISRDDNKNSLYLEMNSLKTEDTAEYYCARNYYGSTPDYWGQGTLVTVS VL: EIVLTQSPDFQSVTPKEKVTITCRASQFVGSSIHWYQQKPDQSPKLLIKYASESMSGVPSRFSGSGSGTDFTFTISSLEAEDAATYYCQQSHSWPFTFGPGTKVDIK

>  <binding result>
binds

$$$$
>  <binder>
SEQ ID NO 87 (Fab, V domains shown, Fab, E. coli lysate) VH: EVQLVESGGGLVQPGGSLRLSCAASGFTFSNHWMNWVRQAPGKGLEWIGEIRSKSSNSATHYAESVKGRFIISRDGNKTSLYLEMNSLKTEDTAEYYCARNYYGSTYDYWGQGTLVTVS VL: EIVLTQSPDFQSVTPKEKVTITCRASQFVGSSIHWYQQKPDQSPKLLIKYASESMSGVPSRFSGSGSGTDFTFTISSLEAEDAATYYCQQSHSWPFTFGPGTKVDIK

>  <binding result>
binds

$$$$
